# Target Of Assay: PI3K p110 beta/p85 alpha (Homo sapiens, UniProt P42338)
# Sequence (P27986 whole entry): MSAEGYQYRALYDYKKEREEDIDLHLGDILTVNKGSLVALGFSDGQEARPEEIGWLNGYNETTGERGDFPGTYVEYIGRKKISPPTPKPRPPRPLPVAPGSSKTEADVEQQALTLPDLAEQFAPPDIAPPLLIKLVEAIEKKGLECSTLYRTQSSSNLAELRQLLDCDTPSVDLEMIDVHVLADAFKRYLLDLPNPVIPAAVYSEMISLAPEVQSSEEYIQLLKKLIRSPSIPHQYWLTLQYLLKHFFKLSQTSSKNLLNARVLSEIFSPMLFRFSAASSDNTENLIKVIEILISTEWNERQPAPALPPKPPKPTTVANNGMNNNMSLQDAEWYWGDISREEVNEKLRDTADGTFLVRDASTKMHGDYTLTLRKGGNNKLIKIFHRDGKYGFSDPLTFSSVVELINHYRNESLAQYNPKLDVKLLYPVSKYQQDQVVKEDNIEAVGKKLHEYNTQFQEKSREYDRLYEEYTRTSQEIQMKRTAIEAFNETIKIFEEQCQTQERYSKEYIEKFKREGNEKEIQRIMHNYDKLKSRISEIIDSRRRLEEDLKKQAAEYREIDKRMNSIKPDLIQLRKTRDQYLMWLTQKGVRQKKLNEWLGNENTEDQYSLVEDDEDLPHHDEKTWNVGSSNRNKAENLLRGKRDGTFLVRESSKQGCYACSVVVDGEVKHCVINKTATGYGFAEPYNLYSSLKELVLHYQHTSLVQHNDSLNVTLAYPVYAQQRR
# Sequence (P42338 whole entry): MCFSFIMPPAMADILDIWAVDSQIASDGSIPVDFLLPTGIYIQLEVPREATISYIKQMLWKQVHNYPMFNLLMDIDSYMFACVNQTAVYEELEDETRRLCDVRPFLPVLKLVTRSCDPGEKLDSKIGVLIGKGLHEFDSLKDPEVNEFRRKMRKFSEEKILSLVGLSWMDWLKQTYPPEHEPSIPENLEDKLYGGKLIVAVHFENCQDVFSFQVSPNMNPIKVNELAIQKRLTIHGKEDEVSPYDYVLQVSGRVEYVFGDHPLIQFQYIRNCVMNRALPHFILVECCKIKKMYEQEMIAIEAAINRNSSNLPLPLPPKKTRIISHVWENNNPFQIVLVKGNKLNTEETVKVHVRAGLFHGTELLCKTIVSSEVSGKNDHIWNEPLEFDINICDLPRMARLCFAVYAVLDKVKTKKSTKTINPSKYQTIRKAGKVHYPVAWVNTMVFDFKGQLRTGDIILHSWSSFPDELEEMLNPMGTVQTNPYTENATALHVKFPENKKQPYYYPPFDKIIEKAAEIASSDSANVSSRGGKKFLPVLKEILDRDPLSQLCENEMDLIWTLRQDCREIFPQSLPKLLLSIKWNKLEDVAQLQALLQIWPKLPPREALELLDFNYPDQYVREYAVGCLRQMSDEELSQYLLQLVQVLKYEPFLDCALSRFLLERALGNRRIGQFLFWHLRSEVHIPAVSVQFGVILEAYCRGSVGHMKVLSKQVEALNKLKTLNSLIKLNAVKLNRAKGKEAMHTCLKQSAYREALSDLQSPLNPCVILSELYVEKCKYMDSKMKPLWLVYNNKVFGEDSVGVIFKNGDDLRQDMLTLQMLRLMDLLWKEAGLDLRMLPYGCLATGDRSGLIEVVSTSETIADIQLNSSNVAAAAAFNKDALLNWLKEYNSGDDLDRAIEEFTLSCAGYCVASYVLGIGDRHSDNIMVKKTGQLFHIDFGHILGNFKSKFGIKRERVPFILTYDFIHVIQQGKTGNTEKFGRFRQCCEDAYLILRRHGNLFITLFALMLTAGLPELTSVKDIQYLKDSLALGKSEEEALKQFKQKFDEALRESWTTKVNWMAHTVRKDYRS
# Measurement Protocol: Inhibition of p110beta/85alpha (unknown origin) using PIP2 as substrate by HTRF assay
# Run Parameters: read-out: Ki(app)
Please respond with reported pKi for every item in the list.
One number for each entry, as −log10 of the molar value.

For every record below, what is its pKi?
1. CS(=O)(=O)N1CCN(Cc2nc3c(N4CCOCC4)nc(-c4cnc(N)nc4)c(Cl)n3n2)CC1
2. CS(=O)(=O)N1CCN(Cc2cc3c(N4CCOCC4)nc(-c4cnc(N)nc4)c(Cl)n3n2)CC1
3. CS(=O)(=O)N1CCN(Cc2cc3c(N4CCOCC4)nc(-c4cnc(N)nc4)cn3n2)CC1

6.55
7.14
7.31

What measured pKi goes with "CS(=O)(=O)N1CCN(Cc2cn3nc(-c4cnc(N)nc4)nc(N4CCOCC4)c3n2)CC1" ?
6.41

###

# Measurement Protocol: Volume of distribution in BALB-C mouse at 3 mg/kg, iv by LC-MS/MS analysis
# Assay type: ADME, organism-based
# Run Parameters: in vivo
Recorded Metric: Vd (L/kg)
Answers are plain numbers, in L/kg.

Please report the recorded Vd for "CS(=O)(=O)N1CCN(Cc2cc3c(N4CCOCC4)nc(-c4cnc(N)nc4)cn3n2)CC1" .
0.6

###

# Measurement Protocol: Half-life in BALB-C mouse at 5 mg/kg, iv by LC-MS/MS analysis
# Type: ADME, organism-based
# Run Parameters: in vivo
Recorded Metric: half-life (min)
Numbers only, in min.

Solved cases below.
>>> data_value("CS(=O)(=O)N1CCN(Cc2nc3c(N4CCOCC4)nc(-c4cnc(N)nc4)cn3n2)CC1")
15.6
>>> data_value("CS(=O)(=O)N1CCN(Cc2cc3c(N4CCOCC4)nc(-c4cnc(N)nc4)c(Cl)n3n2)CC1")
36.6

--- query ---
Give the measured half-life of "CS(=O)(=O)N1CCN(Cc2nc3c(N4CCOCC4)nc(-c4cnc(N)nc4)c(Cl)n3n2)CC1" .
109

###

# Measurement Protocol: AUC (infinity) in BALB-C mouse at 10 mg/kg, po by LC-MS/MS analysis
# Type: ADME, organism-based
# Design: dose 10 mg/kg, time infinity, route oral
# Run Parameters: in vivo
I'd be grateful if you could share measured AUC(0-inf) for these entries.
Please answer using a numeric value trailed by its unit.

>>> data_value("CS(=O)(=O)N1CCN(Cc2cc3c(N4CCOCC4)nc(-c4cnc(N)nc4)c(Cl)n3n2)CC1")
"6980 ng·h/mL"

# input compound: "CS(=O)(=O)N1CCN(Cc2nc3c(N4CCOCC4)nc(-c4cnc(N)nc4)cn3n2)CC1" ; wanted: its AUC(0-inf)
4690 ng·h/mL

###

# Measurement Protocol: Tmax in BALB-C mouse at 9 mg/kg, po by LC-MS/MS analysis
# Type: ADME, organism-based
# Run Parameters: in vivo
Recorded Metric: Tmax

Could you tell me which Tmax is on file for "CS(=O)(=O)N1CCN(Cc2cc3c(N4CCOCC4)nc(-c4cnc(N)nc4)cn3n2)CC1" ?
1 h

###

# Measurement Protocol: Cmax in BALB-C mouse at 5 mg/kg, po by LC-MS/MS analysis
# Format: ADME, organism-based
# Set-up: dose 5 mg/kg, route oral
# Run Parameters: in vivo
Recorded Metric: Cmax (ng/mL)
Answers are plain numbers, in ng/mL.

What measured Cmax goes with "CS(=O)(=O)N1CCN(Cc2nc3c(N4CCOCC4)nc(-c4cnc(N)nc4)c(Cl)n3n2)CC1" ?
1050

###

# Measurement Protocol: Permeability of the compound at 300 uL after 5 hrs by PAMPA
# Type: ADME
# Run Parameters: read-out: permeability
Hi! Just check whether Papp at 5 h is below 0.9 ×10⁻⁶ cm/s. Below gives label 1, equal or above gives label 0.

>>> label_value("CS(=O)(=O)N1CCN(Cc2cc3c(N4CCOCC4)nc(-c4cnc(N)nc4)c(Cl)n3n2)CC1")
"label 0"
>>> label_value("CS(=O)(=O)N1CCN(Cc2nc3c(N4CCOCC4)nc(-c4cnc(N)nc4)c(Cl)n3n2)CC1")
"label 1"

Would you kindly verify if Papp at 5 h of "CS(=O)(=O)N1CCN(Cc2cn3nc(-c4cnc(N)nc4)nc(N4CCOCC4)c3n2)CC1" is strictly less than 0.9 ×10⁻⁶ cm/s?
label 0

Papp at 5 h strictly < 0.9 ×10⁻⁶ cm/s for this compound? "CS(=O)(=O)N1CCN(Cc2cn3cc(-c4cnc(N)nc4)nc(N4CCOCC4)c3n2)CC1"
label 1

Report whether reported Papp at 5 h is lower than 0.9 ×10⁻⁶ cm/s (strictly) for "CS(=O)(=O)N1CCN(Cc2nc3c(N4CCOCC4)nc(-c4cnc(N)nc4)cn3n2)CC1"
label 0

I wonder whether "CS(=O)(=O)N1CCN(Cc2cc3c(N4CCOCC4)nc(-c4cnc(N)nc4)cn3n2)CC1" has Papp at 5 h below 0.9 ×10⁻⁶ cm/s. Can you tell?
label 0

###

# Measurement Protocol: Tmax in BALB-C mouse at 8 mg/kg, po by LC-MS/MS analysis
# Assay type: ADME, organism-based
# Run Parameters: in vivo
Recorded Metric: Tmax (h)
Numbers only, in h.

Fill in: Tmax of "CS(=O)(=O)N1CCN(Cc2cn3cc(-c4cnc(N)nc4)nc(N4CCOCC4)c3n2)CC1" is ___
1

###

# Target Of Assay: PI3-kinase p110-alpha/p85-alpha (Homo sapiens, UniProt P42336)
# Sequence (P27986 whole entry, the tested form may be a part): as the sequence (P27986 whole entry) above
# Sequence (P42336 whole entry, the tested form may be a part): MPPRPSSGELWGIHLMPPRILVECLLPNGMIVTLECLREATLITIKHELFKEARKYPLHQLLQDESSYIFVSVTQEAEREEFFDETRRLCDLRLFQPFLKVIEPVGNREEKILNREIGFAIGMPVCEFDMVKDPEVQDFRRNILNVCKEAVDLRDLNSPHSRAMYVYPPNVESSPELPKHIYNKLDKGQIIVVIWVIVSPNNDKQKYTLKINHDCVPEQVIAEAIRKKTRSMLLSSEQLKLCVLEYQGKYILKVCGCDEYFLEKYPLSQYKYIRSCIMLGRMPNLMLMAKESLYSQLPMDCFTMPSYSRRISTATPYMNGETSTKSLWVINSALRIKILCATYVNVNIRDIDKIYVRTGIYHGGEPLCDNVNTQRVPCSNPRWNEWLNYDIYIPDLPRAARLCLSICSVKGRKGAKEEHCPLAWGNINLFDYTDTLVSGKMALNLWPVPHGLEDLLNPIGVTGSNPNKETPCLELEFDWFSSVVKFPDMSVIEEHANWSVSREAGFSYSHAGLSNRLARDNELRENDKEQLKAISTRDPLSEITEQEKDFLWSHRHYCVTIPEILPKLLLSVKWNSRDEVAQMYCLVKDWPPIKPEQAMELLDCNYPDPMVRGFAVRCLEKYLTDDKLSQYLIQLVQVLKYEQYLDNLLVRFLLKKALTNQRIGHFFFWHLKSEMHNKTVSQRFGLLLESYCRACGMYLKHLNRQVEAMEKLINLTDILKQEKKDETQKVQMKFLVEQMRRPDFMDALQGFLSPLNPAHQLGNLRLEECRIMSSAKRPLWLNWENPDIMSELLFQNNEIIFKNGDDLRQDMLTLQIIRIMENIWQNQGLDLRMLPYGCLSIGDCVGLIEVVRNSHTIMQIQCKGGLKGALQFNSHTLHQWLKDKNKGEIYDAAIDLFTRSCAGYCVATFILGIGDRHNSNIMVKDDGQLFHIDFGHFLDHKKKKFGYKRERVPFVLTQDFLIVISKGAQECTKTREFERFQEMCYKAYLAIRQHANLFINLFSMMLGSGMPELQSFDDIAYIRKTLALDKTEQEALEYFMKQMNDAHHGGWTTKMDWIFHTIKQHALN
# Measurement Protocol: Inhibition of full-length human P110alpha (1 to 1068 residues)/N-terminal GST-fused p85alpha (1 to 724 residues) expressed in baculovirus expression system by ADP Hunter assay
# Run Parameters: read-out: Ki(app)
Would you mind telling me the reported pKi of each entry?
Answers are plain numbers, as −log10 of the molar value.

Batch lookup, pKi per entry.
1. CS(=O)(=O)N1CCN(Cc2nc3c(N4CCOCC4)nc(-c4cnc(N)nc4)c(Cl)n3n2)CC1
2. CS(=O)(=O)N1CCN(Cc2cc3c(N4CCOCC4)nc(-c4cnc(N)nc4)c(Cl)n3n2)CC1
3. CS(=O)(=O)N1CCN(Cc2cc3c(N4CCOCC4)nc(-c4cnc(N)nc4)cn3n2)CC1
4. CS(=O)(=O)N1CCN(Cc2cn3nc(-c4cnc(N)nc4)nc(N4CCOCC4)c3n2)CC1

8.26
8.68
9.00
8.82

###

# Measurement Protocol: Half-life in BALB-C mouse at 8 mg/kg, iv by LC-MS/MS analysis
# Assay type: ADME, organism-based
# Run Parameters: in vivo
Recorded Metric: half-life (h)
Answers are plain numbers, in h.

Can you share its half-life? I mean this molecule: "CS(=O)(=O)N1CCN(Cc2cn3cc(-c4cnc(N)nc4)nc(N4CCOCC4)c3n2)CC1"
1.36

###

# Measurement Protocol: Volume of distribution in BALB-C mouse at 5 mg/kg, iv by LC-MS/MS analysis
# Type: ADME, organism-based
# Run Parameters: in vivo
Kindly state Vd for each of the entries shown.
One number for each entry, in L/kg.

>>> data_value("CS(=O)(=O)N1CCN(Cc2nc3c(N4CCOCC4)nc(-c4cnc(N)nc4)c(Cl)n3n2)CC1")
1.61

For each listed entry, give its Vd.
1. CS(=O)(=O)N1CCN(Cc2cc3c(N4CCOCC4)nc(-c4cnc(N)nc4)c(Cl)n3n2)CC1
2. CS(=O)(=O)N1CCN(Cc2nc3c(N4CCOCC4)nc(-c4cnc(N)nc4)cn3n2)CC1

1. 1.24
2. 2

###

# Measurement Protocol: Cmax in BALB-C mouse at 9 mg/kg, po by LC-MS/MS analysis
# Format: ADME, organism-based
# Parameters: dose 9 mg/kg, route oral
# Run Parameters: in vivo
Recorded Metric: Cmax (µg/mL)
Numbers only, in µg/mL.

Can you share its Cmax? I mean this compound: "CS(=O)(=O)N1CCN(Cc2cc3c(N4CCOCC4)nc(-c4cnc(N)nc4)cn3n2)CC1"
0.938

###

# Target Of Assay: Mast/stem cell growth factor receptor Kit (Homo sapiens)
# Measurement Protocol: Inhibition of recombinant human N-terminal GST/His6-tagged KIT (T544 to V976 residues) expressed in Sf9 insect cells at 1 uM using TRK-C-derived peptide as substrate by filter binding method relative to control
Recorded Metric: inhibition

>>> data_value("CS(=O)(=O)N1CCN(Cc2cn3nc(-c4cnc(N)nc4)nc(N4CCOCC4)c3n2)CC1")
"< 25%"
>>> data_value("CS(=O)(=O)N1CCN(Cc2nc3c(N4CCOCC4)nc(-c4cnc(N)nc4)c(Cl)n3n2)CC1")
"< 25%"
>>> data_value("CS(=O)(=O)N1CCN(Cc2nc3c(N4CCOCC4)nc(-c4cnc(N)nc4)cn3n2)CC1")
"< 25%"

Consider the record given below.
Notebook entry, Mast/stem cell growth factor receptor Kit (Homo sapiens) assay: inhibition of "CS(=O)(=O)N1CCN(Cc2cc3c(N4CCOCC4)nc(-c4cnc(N)nc4)cn3n2)CC1" = ?
< 25%
